- TGT: tetanus neurotoxin (TeNT), authentic tetanus holotoxin (Clostridium tetani, UniProt P04958 2-1315)
- Sequence (P04958 2-457 limits assumed, chain 1 of 2): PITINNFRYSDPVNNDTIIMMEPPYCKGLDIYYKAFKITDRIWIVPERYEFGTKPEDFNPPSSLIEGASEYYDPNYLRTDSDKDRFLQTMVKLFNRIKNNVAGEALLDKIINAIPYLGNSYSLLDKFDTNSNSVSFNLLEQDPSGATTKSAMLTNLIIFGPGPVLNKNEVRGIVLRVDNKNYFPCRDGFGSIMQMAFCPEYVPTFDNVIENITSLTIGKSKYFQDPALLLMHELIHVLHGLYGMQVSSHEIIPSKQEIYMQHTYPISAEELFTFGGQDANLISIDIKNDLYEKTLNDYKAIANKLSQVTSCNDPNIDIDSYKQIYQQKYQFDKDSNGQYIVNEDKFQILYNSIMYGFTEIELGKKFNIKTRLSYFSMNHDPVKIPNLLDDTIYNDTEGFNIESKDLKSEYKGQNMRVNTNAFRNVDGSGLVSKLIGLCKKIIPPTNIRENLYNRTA
- Sequence (P04958 458-1315 limits assumed, chain 2 of 2): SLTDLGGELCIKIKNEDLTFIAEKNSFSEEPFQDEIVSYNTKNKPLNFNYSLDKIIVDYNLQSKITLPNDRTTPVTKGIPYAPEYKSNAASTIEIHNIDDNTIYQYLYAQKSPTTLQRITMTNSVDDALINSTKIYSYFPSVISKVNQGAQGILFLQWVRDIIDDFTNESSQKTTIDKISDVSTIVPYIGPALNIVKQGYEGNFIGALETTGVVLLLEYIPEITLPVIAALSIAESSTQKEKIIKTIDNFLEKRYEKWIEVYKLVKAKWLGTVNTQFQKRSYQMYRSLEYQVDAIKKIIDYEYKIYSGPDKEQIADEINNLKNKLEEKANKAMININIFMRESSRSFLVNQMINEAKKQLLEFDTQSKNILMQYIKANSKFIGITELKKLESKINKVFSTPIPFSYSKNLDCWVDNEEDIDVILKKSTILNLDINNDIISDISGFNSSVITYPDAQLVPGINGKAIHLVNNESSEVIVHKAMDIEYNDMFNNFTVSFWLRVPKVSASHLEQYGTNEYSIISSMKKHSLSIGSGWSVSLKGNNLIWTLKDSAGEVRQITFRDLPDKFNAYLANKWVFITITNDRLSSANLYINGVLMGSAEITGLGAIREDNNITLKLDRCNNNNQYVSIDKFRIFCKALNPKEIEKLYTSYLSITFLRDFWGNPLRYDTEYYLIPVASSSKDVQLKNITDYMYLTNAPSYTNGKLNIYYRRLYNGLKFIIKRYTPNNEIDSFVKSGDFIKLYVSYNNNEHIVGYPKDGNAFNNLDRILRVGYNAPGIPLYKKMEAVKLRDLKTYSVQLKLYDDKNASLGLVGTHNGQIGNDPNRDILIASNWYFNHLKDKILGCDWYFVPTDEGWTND
- MEASUREMENT PROTOCOL: ELISA, TeNT captured with cAb-TT2, unlabelled binder
Tick True if EC resulting in A450 0.15 is 4 ng/mL or greater. Tick False if EC resulting in A450 0.15 is less than 4 ng/mL.

| BINDER | CAT |
| --- | --- |
| SVT20L (VHH) VHH: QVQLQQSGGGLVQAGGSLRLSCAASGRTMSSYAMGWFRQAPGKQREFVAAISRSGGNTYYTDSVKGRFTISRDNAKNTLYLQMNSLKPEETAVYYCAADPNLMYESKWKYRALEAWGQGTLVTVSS | False |
| SVT34L (VHH) VHH: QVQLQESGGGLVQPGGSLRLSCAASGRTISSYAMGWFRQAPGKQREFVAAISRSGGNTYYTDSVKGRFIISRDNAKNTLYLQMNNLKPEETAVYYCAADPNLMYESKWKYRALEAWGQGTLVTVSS | False |
| SVT05L (VHH) VHH: QVQLQESGGGLVQPGGSLRLSCSASGFSFTDDYGIGWFRSGPGKGREAVAPIADREAVAAIALSDGNTYYSASAKGRFTISRDNAKSTAYLQMNNLKPEDTATYYCAADFWGYGMSWPMATLWEYWGQGIQVTVSS | False |
| SVT25L (VHH) VHH: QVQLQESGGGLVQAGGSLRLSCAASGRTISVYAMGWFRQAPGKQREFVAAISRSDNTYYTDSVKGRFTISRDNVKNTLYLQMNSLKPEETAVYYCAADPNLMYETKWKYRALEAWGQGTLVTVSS | True |
| SVT06L (VHH) VHH: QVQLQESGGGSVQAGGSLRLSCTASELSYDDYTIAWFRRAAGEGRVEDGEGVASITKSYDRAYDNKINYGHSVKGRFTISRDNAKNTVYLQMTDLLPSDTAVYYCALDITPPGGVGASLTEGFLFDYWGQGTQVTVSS | False |
| SVT02L (VHH) VHH: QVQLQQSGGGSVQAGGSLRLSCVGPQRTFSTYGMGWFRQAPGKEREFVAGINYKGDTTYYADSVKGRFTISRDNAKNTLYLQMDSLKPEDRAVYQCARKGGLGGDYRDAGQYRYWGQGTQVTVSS | True |
| SVT29L (VHH) VHH: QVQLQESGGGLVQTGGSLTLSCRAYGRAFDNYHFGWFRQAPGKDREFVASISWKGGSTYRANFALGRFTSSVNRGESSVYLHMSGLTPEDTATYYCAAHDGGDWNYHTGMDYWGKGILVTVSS | True |
| SVT03L (VHH) VHH: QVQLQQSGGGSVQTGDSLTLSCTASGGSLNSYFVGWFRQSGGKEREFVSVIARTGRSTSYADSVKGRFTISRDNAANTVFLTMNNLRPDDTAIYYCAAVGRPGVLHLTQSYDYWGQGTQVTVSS | False |

Request: Item SVT22L (VHH) VHH: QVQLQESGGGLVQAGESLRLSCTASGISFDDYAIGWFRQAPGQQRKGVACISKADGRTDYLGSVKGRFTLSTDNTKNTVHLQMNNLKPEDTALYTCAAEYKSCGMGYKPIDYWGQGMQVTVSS with EC resulting in A450 0.15 of 4 ng/mL or above?
Response: True

Request: Item SVT31L (VHH) VHH: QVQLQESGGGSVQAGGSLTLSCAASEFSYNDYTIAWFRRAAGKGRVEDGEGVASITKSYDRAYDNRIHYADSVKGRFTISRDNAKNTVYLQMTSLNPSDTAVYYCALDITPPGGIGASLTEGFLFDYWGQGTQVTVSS with EC resulting in A450 0.15 of 4 ng/mL or above?
Response: True

Request: Item SVT08L (VHH) VHH: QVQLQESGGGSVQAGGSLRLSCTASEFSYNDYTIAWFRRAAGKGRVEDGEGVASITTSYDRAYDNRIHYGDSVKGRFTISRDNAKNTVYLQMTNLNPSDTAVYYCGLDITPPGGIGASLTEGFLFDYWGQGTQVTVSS with EC resulting in A450 0.15 of 4 ng/mL or above?
Response: False
